Cited source: patent US12581252B2

Target: H1047R PIK3CA enzyme (Homo sapiens, UniProt P42336, H1047R)
Sequence (P42336 whole entry H1047R): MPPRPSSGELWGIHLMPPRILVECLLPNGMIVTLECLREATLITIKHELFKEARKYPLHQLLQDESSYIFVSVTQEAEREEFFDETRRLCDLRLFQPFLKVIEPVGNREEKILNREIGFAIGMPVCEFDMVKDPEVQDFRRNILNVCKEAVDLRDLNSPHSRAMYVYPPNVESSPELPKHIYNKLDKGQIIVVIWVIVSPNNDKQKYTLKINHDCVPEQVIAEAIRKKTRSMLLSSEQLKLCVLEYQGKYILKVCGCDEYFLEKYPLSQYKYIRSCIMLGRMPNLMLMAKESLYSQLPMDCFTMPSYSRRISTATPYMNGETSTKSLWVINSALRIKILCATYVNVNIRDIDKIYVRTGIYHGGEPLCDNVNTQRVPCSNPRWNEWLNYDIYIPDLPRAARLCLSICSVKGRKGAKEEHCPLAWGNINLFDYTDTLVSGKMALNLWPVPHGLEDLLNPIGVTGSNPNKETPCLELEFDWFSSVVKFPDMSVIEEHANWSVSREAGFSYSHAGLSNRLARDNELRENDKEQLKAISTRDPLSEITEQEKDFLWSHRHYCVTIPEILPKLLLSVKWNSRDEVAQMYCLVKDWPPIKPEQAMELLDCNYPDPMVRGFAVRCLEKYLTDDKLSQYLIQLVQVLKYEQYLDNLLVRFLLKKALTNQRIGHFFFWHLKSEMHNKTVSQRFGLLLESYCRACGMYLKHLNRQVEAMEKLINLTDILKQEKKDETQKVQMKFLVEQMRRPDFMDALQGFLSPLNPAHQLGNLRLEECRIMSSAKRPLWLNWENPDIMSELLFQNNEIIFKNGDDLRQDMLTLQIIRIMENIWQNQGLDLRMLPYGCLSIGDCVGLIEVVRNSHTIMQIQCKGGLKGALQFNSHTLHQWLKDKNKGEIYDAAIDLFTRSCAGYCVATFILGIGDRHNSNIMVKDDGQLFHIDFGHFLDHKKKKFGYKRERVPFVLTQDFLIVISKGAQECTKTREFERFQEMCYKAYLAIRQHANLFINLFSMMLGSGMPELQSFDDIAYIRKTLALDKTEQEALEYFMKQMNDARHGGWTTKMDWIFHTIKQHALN
Sequence (P27986 whole entry partner): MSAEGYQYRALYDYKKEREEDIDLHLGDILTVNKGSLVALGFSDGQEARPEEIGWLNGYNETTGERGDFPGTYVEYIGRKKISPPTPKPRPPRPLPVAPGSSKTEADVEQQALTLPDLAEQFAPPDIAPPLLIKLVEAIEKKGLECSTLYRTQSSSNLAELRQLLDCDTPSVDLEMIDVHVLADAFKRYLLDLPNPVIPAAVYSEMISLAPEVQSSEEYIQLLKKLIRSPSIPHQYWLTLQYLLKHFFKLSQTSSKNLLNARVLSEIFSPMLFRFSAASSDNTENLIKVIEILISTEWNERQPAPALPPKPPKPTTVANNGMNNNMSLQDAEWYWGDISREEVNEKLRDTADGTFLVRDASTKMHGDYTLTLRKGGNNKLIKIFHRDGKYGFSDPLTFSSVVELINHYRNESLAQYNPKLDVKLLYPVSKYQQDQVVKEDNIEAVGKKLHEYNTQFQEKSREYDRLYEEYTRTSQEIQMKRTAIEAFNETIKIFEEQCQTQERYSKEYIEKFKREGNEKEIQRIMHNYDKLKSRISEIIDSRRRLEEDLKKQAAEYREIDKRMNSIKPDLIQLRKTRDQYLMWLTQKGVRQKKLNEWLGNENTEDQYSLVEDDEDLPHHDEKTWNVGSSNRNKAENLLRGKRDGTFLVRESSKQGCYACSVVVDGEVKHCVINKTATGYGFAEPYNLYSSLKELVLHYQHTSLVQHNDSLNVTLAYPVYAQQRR
Experiment: ADP-Glo Biochemical PIK3CA Kinase Assay
pIC50: −log10 of the molar value.
METRIC: pIC50

1. O=C1NC(c2cc(F)ccc2Cl)c2c(Cn3ccccc3=O)cc(-c3ccc4ncnn4c3)cc21 (centres unmarked) [Compound I-1980] = 4.00 to 5.00
2. O=C1NC(c2cc(F)ccc2Cl)c2c(NC3CCCNC3)cc(-c3ccc4ncnn4c3)cc21 (centres unmarked) [Compound I-2158] = 4.00 to 5.00
3. O=C1NC(c2cc(F)ccc2F)c2c(NC(=O)c3csc4ccccc34)ccnc21 (centres unmarked) [Compound I-71] = 6.00 to 6.30
4. O=C(Nc1cccc2c1C(c1ccc(-c3ccccc3)cc1Cl)NC2=O)c1cc(F)cc(C(F)(F)F)c1 (centres unmarked) [Compound I-421] = 5.00 to 6.00
5. O=C1N[C@H](c2cc(F)ccc2C(F)F)c2c(NC(=O)c3nsc4ccccc34)cccc21 [Compound I-167] = ≥ 7.00
6. N#Cc1cc(NC(=O)N2C[C@@](O)(C(F)(F)F)c3cc(F)ccc32)c2c(c1)C(=O)N[C@@H]2c1cc(F)ccc1Cl (single isomer, unassigned) [Compound I-2560] = ≥ 7.00
7. O=C(Nc1cnc(-c2cn[nH]c2)c2c1C(c1cc(F)ccc1Cl)NC2=O)c1cc(F)cc(C(F)(F)F)c1 (centres unmarked) [Compound I-287] = 6.30 to 7.00
8. O=C1NC(c2cc(F)ccc2Cl)c2c(NC(=O)c3nsc(Cl)c3Cl)cc(Br)cc21 (centres unmarked) [Compound I-1426] = 5.00 to 6.00
9. N#Cc1cc(NC(=O)c2cc(F)cc(C(F)(F)F)c2)c2c(c1)C(=O)N[C@@H]2c1cc(F)ccc1Cl (single isomer, unassigned) [Compound I-770] = ≥ 7.00
10. O=C1NC(c2cc(F)ccc2Cl)c2c(NC(=O)C3CCCC(C(F)(F)F)C3)cc(Br)cc21 (mixture of isomers) [Compound I-1323] = 6.30 to 7.00
11. O=C(Nc1cc(Br)cc2c1C(c1cc(F)ccc1Cl)NC2=O)c1cccc(F)c1 (centres unmarked) [Compound I-526] = 5.00 to 6.00
12. O=C1N[C@H](c2cc(F)ccc2Cl)c2c(NC(=O)N3C[C@@H](O)c4cc(F)ccc43)cc(-c3cnn(C(F)F)c3)cc21 (single isomer, unassigned) [Compound I-2476] = 4.00 to 5.00
13. O=C(CC1CC(F)(F)C1(F)F)Nc1cc(Br)cc2c1C(c1cc(F)ccc1Cl)NC2=O (centres unmarked) [Compound I-1633] = 5.00 to 6.00
14. O=C(Nc1cccc2c1C(C1CCCCC13CC3)NC2=O)c1cc(F)cc(C(F)(F)F)c1 (racemic) [Compound I-1912] = 5.00 to 6.00

---

Target: H1047R PIK3CA enzyme (Homo sapiens, UniProt P42336, H1047R)
Assay: ADP-Glo Biochemical PIK3CA Kinase Assay
pIC50: −log10 of the molar value.
Attribute: pIC50
METRIC: pIC50

1) O=C1N[C@H](c2cc(F)ccc2Cl)c2c(NC(=O)N3C[C@H](O)c4cc(F)ccc43)cc(-c3cnn(C(F)F)c3)cc21 (single isomer, unassigned) [Compound I-2475] = 5.00 to 6.00
2) NC(=O)c1cnccc1-c1cc(NC(=O)c2cc(F)cc(Cl)c2)c2c(n1)C(=O)NC2c1cc(F)ccc1Cl (stereo not shown) [Compound I-507] = 5.00 to 6.00
3) O=C1N[C@H](c2cc(F)ccc2Cl)c2c(NC(=O)N3C[C@@H](O)c4cc(F)ccc43)cc(-n3nccn3)cc21 (single isomer, unassigned) [Compound I-2344] = 5.00 to 6.00
4) COc1cc(-c2ccc3ncnn3c2)cc2c1C(c1cc(F)ccc1Cl)NC2=O (stereo not shown) [Compound I-1973] = 4.00 to 5.00
5) CN1CCCC[C@H]1C(=O)Nc1cc(-c2ccc3ncnn3c2)cc2c1[C@H](c1cc(F)ccc1Cl)NC2=O (racemic) [Compound I-1948] = 4.00 to 5.00
6) CCOC(=O)Cc1cc(F)cc(C(=O)Nc2cc(CC(=O)OCC)cc3c2C(c2cc(F)ccc2Cl)NC3=O)c1 (stereo not shown) [Compound I-697] = 5.00 to 6.00
7) N#Cc1cnn(-c2cc(NC(=O)N3C[C@H](O)c4cc(F)ccc43)c3c(c2)C(=O)N[C@@H]3c2cc(F)ccc2Cl)c1 (single isomer, unassigned) [Compound I-2406] = 5.00 to 6.00
8) O=C(Nc1cc(-c2cc(F)n3ncnc3c2)cc2c1[C@H](c1cc(F)ccc1Cl)NC2=O)c1cc(F)cc(C(F)(F)F)c1 [Compound I-1927] = ≥ 7.00
9) CC(O)(CO)c1cc(NC(=O)c2cc(F)cc(C(F)(F)F)c2)c2c(c1)C(=O)NC2c1cc(F)ccc1Cl (stereo not shown) [Compound I-382] = 6.30 to 7.00
10) O=C(Nc1cc(-c2cc3ncnn3cc2F)cc2c1[C@H](c1cc(F)ccc1Cl)NC2=O)c1cc(F)cc(C(F)(F)F)c1 [Compound I-1868] = ≥ 7.00
11) O=C1NC(c2cc(F)ccc2Cl)c2c(NC(=O)C3CC(C(F)(F)F)CCN3)cc(Br)cc21 (stereo not shown) [Compound I-1689] = 4.00 to 5.00
12) O=C(Nc1cc(Br)cc2c(=O)[nH]n(-c3cc(F)ccc3Cl)c12)c1cc(F)cc(C(F)(F)F)c1 [Compound I-752] = 5.00 to 6.00
13) O=C1N[C@H](c2cc(F)ccc2Cl)c2c(NC(=O)N3C[C@H](O)c4cc(F)ccc43)cccc21 (single isomer, unassigned) [Compound I-2128] = 4.00 to 5.00

---

Target: H1047R PIK3CA enzyme (Homo sapiens, UniProt P42336, H1047R)
Experiment: ADP-Glo Biochemical PIK3CA Kinase Assay
pIC50: −log10 of the molar value.
Attribute: pIC50
METRIC: pIC50

1. O=C1N[C@@H](c2cc(F)ccc2Cl)c2c(NC(=O)N3C[C@@](O)(C(F)(F)F)c4cc(F)ccc43)cc(Cl)nc21 (single isomer, unassigned) = 5.00 to 6.00
2. Cc1ccccc1C1NC(=O)c2nccc(NC(=O)N3CCc4c(F)cc(F)cc43)c21 (stereo not drawn) = 6.00 to 6.30
3. O=C(Nc1cc(Br)cc2c1[C@@H](c1ccccc1C(F)F)NC2=O)c1cc(F)cc(C(F)(F)F)c1 = 5.00 to 6.00
4. O=C1N[C@H](c2cc(F)ccc2Cl)c2c(NC(=O)N3C[C@H](C(F)F)c4ccccc43)cccc21 (single isomer, unassigned) = ≥ 7.00
5. O=C(Nc1cccc2c1[C@H](C1CCC(F)(F)CC1)NC2=O)c1cc(F)cc(C(F)(F)F)c1 (racemic) [Compound I-1836] = 4.00 to 5.00
6. O=C(Nc1cc(-c2ccc3nc(Cl)nn3c2)cc2c1C(c1cc(F)ccc1Cl)NC2=O)c1cc(F)cc(C(F)(F)F)c1 (stereo not drawn) [Compound I-1573] = ≥ 7.00

---

Target: H1047R PIK3CA enzyme (Homo sapiens, UniProt P42336, H1047R)
Test: ADP-Glo Biochemical PIK3CA Kinase Assay
Attribute: IC50
METRIC: IC50

1) CN1CC[C@H](Nc2cc(NC(=O)c3cc(F)cc(C(F)(F)F)c3)c3c(c2)C(=O)NC3c2cc(F)ccc2Cl)C1 (stereo partly shown) [Compound I-311] = ≤ 0.1 µM
2) CC[C@H](CC(=O)Nc1cccc2c1[C@H](c1cc(F)ccc1Cl)NC2=O)[C@@H](C)C(F)(F)F (single isomer, unassigned) [Compound I-2335] = 1 to 10 µM
3) Cc1nocc1Nc1cc(NC(=O)c2cc(F)cc(C(F)(F)F)c2)c2c(c1)C(=O)NC2c1cc(F)ccc1Cl (stereo not shown) [Compound I-856] = ≤ 0.1 µM
4) COc1cnc2ccc(-c3cc(NC(=O)c4cc(F)cc(C(F)(F)F)c4)c4c(c3)C(=O)NC4c3cc(F)ccc3Cl)cc2c1 (stereo not shown) [Compound I-1602] = ≤ 0.1 µM
5) O=C(Nc1cc(-c2cnn(C3CNC3)c2)cc2c1C(c1cc(F)ccc1Cl)NC2=O)c1cc(F)cc(C(F)(F)F)c1 (stereo not shown) [Compound I-903] = ≤ 0.1 µM
6) N#CCOc1cc(NC(=O)c2cc(F)cc(C(F)(F)F)c2)c2c(c1)C(=O)N[C@H]2c1cc(F)ccc1Cl [Compound I-1888] = ≤ 0.1 µM
7) CC#Cc1cc(-c2ccc3ncnn3c2)cc2c1C(c1cc(F)ccc1Cl)NC2=O (stereo not shown) [Compound I-1988] = 10 to 100 µM
8) O=C(Nc1cc(CS(=O)(=O)c2ccccc2)cc2c1[C@H](c1cc(F)ccc1Cl)NC2=O)c1cc(F)cc(C(F)(F)F)c1 [Compound I-1591] = ≤ 0.1 µM
9) N#CCc1ccc(NC(=O)N2C[C@](O)(C(F)(F)F)c3cc(F)ccc32)c2c1C(=O)N[C@H]2c1cc(F)ccc1Cl (single isomer, unassigned) [Compound I-2614] = ≤ 0.1 µM
10) [2H]C1([2H])N(C(=O)Nc2cccc3c2[C@@H](c2cc(F)ccc2Cl)NC3=O)c2ccc(F)cc2[C@@]1(O)C(F)(F)F (single isomer, unassigned) [Compound I-2594] = 1 to 10 µM
11) N#CCc1cc(NC(=O)c2cc(F)cc(C(F)(F)F)c2)c2c(c1)C(=O)N[C@H]2c1cc(F)ccc1Cl (racemic) [Compound I-1088] = ≤ 0.1 µM
12) Cc1ccccc1C1NC(=O)c2cc(N)cc(NC(=O)c3cc(F)cc(C(F)(F)F)c3)c21 (stereo not shown) [Compound I-40] = ≤ 0.1 µM
13) N#CN1CC(c2cc(NC(=O)c3cc(F)cc(C(F)(F)F)c3)c3c(c2)C(=O)NC3c2cc(F)ccc2Cl)C1 (stereo not shown) [Compound I-1157] = ≤ 0.1 µM
14) N#CCc1cc(NC(=O)N2C[C@](O)(C(F)(F)F)c3ccccc32)c2c(c1)C(=O)N[C@H]2c1cc(F)ccc1Cl (single isomer, unassigned) [Compound I-2604] = 0.5 to 1 µM
15) O=C(Nc1cc(Br)cc2c1[C@@H](c1cc(F)ccc1C(F)F)NC2=O)c1cc(F)cc(C(F)(F)F)c1 [Compound I-798] = 1 to 10 µM
16) O=C1N[C@H](c2cc(F)ccc2Cl)c2c(NC(=O)N3C[C@@H](CO)[C@H](C(F)(F)F)C3)cccc21 (single isomer, unassigned) [Compound I-2276] = 10 to 100 µM
17) C[C@@]1(O)CN(C(=O)Nc2cccc3c2[C@H](c2cc(F)ccc2Cl)NC3=O)c2ccccc21 (single isomer, unassigned) [Compound I-2206] = 10 to 100 µM
18) O=C1N[C@H](c2cc(F)ccc2Cl)c2c(NC(=O)N3C[C@](O)(C(F)(F)F)c4cc(F)ccc43)cc(Cl)cc21 (single isomer, unassigned) [Compound I-2512] = 1 to 10 µM
19) O=C(Nc1cc(-c2ccc3ncnn3c2)cc2c1[C@@H](c1cc(F)ccc1Cl)NC2=O)c1cc(Cl)cc(Cl)c1 (stereo in doubt) [Compound I-1207] = 1 to 10 µM
20) Cc1ccccc1C1NC(=O)c2nccc(NC(=O)N3CCc4cnccc43)c21 (stereo not shown) [Compound I-248] = 10 to 100 µM
21) O=C1N[C@H](c2cc(F)ccc2Cl)c2c(NC(=O)N3C[C@H](O)c4ccccc43)cc(Br)cc21 (single isomer, unassigned) [Compound I-1513] = 0.1 to 0.5 µM
22) Cn1ccnc1C(C)(O)c1cc(NC(=O)c2cc(F)cc(C(F)(F)F)c2)c2c(c1)C(=O)NC2c1cc(F)ccc1Cl (stereo not shown) [Compound I-1199] = ≤ 0.1 µM
23) NCc1cc(NC(=O)N2C[C@@](O)(C(F)F)c3cc(F)ccc32)c2c(c1)C(=O)N[C@H]2c1cc(F)ccc1Cl (single isomer, unassigned) [Compound I-2696] = 1 to 10 µM
24) CC(=O)Nc1cccc2c1C(c1cc(F)ccc1Cl)NC2=O (stereo not shown) [Compound I-1581] = 10 to 100 µM
25) COCCc1cc(NC(=O)c2cc(F)cc(C(F)(F)F)c2)c2c(c1)C(=O)NC2c1cc(F)ccc1Cl (stereo not shown) [Compound I-1020] = ≤ 0.1 µM
